Can you tell me residual activity for the items I'm about to list?
Target: MAP2K1 (human) (UniProt Q02750)
Sequence (Q02750 whole entry, looked up): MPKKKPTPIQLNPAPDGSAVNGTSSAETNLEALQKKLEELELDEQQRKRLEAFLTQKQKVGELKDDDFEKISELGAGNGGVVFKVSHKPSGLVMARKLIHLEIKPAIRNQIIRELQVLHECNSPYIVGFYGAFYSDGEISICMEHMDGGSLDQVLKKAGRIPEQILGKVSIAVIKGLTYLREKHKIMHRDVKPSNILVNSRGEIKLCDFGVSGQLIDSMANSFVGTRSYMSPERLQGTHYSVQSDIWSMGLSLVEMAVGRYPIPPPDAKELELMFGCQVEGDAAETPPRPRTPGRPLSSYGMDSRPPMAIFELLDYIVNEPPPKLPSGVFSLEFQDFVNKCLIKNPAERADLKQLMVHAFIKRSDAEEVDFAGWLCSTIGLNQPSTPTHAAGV
Assay: radiometric filter-binding kinase assay, Kinase HotSpot
Conditions: compound 0.5 µM; ATP 10 µM

Below, each entry is followed by its recorded residual activity result.
O=C(O)c1ccc2c3c1cccc3c(=O)n1c3ccccc3nc21 93.7%
O=C(c1ccccc1)c1ccc(N2CCOCC2)cc1O 98.1%
COc1cc2c(N3CCN(C(=O)Nc4ccc(OC(C)C)cc4)CC3)ncnc2cc1OCCCN1CCCCC1 113%
Cc1cc(Nc2nc(-c3ccccc3)nc3ccccc23)n[nH]1 91.6%

**Query** Could you share which residual activity value was measured for O=C1NC(=O)c2cc(Nc3ccc(F)cc3)c(Nc3ccc(F)cc3)cc21 ?
**Result** 103%
